molecular target: D(2) dopamine receptor (Homo sapiens, UniProt P14416); assay: Affinity was evaluated by inhibition of [3H]spiperone binding to COS cells transfected with human dopamine D-2(long) receptor; type: cell-based
Sequence (P14416 whole entry): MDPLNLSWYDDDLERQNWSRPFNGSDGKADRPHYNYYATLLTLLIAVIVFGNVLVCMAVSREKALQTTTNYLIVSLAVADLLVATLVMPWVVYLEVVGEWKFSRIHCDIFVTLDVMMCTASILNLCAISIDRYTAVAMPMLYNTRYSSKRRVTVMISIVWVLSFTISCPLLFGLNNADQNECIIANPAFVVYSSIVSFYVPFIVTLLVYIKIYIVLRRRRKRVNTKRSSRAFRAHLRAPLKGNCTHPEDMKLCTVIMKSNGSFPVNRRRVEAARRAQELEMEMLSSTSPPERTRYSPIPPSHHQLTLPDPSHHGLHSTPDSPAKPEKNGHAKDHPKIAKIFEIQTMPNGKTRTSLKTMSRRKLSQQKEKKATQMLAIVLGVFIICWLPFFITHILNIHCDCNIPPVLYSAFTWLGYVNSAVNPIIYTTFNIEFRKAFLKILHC
Listing of recorded pKi by entry.
Notebook: values listed as pKi are -log10 of the concentration (mol/L).

Answered cases to consult:
Please state recorded pKi (tested on D(2) dopamine receptor (Homo sapiens, UniProt P14416)) of CC(C)=C1c2ccc(Cl)cc2C=C(N2CCN(C)CC2)c2ccccc21 6.16

Please state recorded pKi (tested on D(2) dopamine receptor (Homo sapiens, UniProt P14416)) of C=C1c2ccccc2C=C(N2CCN(C)CC2)c2ccccc21 7.24

Please state recorded pKi (tested on D(2) dopamine receptor (Homo sapiens, UniProt P14416)) of CN1CCN(C2=Cc3ccccc3Oc3ccc(Cl)cc32)CC1 8.60

More entries:
Please state recorded pKi (tested on D(2) dopamine receptor (Homo sapiens, UniProt P14416)) of CC(C)=C1c2ccccc2C=C(N2CCN(C)CC2)c2ccccc21 6.54

Please state recorded pKi (tested on D(2) dopamine receptor (Homo sapiens, UniProt P14416)) of CN1CCN(C2=Cc3ccccc3Oc3ccccc32)CC1 7.68

Please state recorded pKi (tested on D(2) dopamine receptor (Homo sapiens, UniProt P14416)) of CN1CCN(C2=Cc3cc(Cl)ccc3Oc3ccccc32)CC1 8.06

Please state recorded pKi (tested on D(2) dopamine receptor (Homo sapiens, UniProt P14416)) of C/C=C1/c2ccccc2C=C(N2CCN(C)CC2)c2ccccc21 6.14

====

assay: Ratio between Ki values of D2 and S-2A receptors
The label depends only on Ratio: t if it is at least 4, f if it is smaller.

Evaluate C[C@H]1c2ccccc2C=C(C2=CCN(C)CC2)c2ccccc21 : Ratio at minimum 4? f

Evaluate CN1CCC(C2=Cc3cc(Cl)ccc3Cc3ccccc32)CC1 : Ratio at minimum 4? t

Evaluate CC(C)=C1c2ccc(Cl)cc2C=C(N2CCN(C)CC2)c2ccccc21 : Ratio at minimum 4? f

Evaluate CN1CCN(C2=Nc3cc(Cl)ccc3N(C)c3ccccc32)CC1 : Ratio at minimum 4? t

Evaluate CC(C)=C1c2ccccc2C=C(N2CCN(C)CC2)c2ccccc21 : Ratio at minimum 4? f

More entries:
Evaluate C/C=C1/c2ccccc2C=C(N2CCN(C)CC2)c2ccccc21 : Ratio at minimum 4? t

Evaluate C[C@@H]1c2ccccc2C=C(C2=CCN(C)CC2)c2ccccc21 : Ratio at minimum 4? t

Evaluate CN1CCN(C2=Cc3ccccc3Oc3ccccc32)CC1 : Ratio at minimum 4? t

====

molecular target: 5-hydroxytryptamine receptor 2A (Rattus norvegicus); assay: Affinity was evaluated by inhibition of [125I]LSD binding to NIH 3T3 cells transfected with cloned rat 5-hydroxytryptamine 2A receptor; type: cell-based, NIH3T3
Sequence (P14842 whole entry): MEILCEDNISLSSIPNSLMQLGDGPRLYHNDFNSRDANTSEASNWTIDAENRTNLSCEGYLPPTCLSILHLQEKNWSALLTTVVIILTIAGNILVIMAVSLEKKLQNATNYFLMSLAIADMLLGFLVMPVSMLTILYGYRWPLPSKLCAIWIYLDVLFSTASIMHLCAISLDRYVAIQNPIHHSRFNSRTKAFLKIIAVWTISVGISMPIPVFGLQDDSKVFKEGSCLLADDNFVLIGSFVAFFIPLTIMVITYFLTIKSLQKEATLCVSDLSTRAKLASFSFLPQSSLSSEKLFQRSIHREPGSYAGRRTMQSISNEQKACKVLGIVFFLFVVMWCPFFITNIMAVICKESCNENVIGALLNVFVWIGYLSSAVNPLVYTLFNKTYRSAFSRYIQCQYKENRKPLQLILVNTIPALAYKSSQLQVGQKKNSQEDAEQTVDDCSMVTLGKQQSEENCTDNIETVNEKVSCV
METRIC: Ki (nM)
Numbers only; they are read as nM.

Answered cases to consult:
Quick one: Ki of CC(C)=C1c2ccc(Cl)cc2C=C(N2CCN(C)CC2)c2ccccc21 ? 230

Quick one: Ki of CN1CCN(C2=Cc3cc(Cl)ccc3Cc3ccccc32)CC1 ? 3

Quick one: Ki of CN1CCN(C2=Cc3ccccc3Cc3ccc(Cl)cc32)CC1 ? 2

Quick one: Ki of CN1CCN(C2=Cc3ccccc3Oc3ccc(Cl)cc32)CC1 ? 3

More entries:
Quick one: Ki of CC(C)=C1c2ccccc2C=C(N2CCN(C)CC2)c2ccccc21 ? 250

Quick one: Ki of CN1CCN(C2=Cc3ccccc3Oc3ccccc32)CC1 ? 4

Quick one: Ki of C/C=C1/c2ccccc2C=C(N2CCN(C)CC2)c2ccccc21 ? 98
